# System: RPMI-8226 leukemia
# EXPERIMENTAL_PROTOCOL: NCI tumour cell line growth inhibition, 48 h; in the data active means GI50 below about 0.43 µM; inactive means the rest
The reply should be one of these categories: active, inactive

These solved cases illustrate the format of a correct answer.
[
  {
    "COMPOUND": "COC1=C(C)C(=O)C2=C(C1=O)C(CO)N1C(C#N)C3CC4C(C1C2N1CCOC41)N3C (stereo not drawn)",
    "MEASURED_ON": "RPMI-8226 leukemia",
    "ASSIGNED_LABEL": "active"
  },
  {
    "COMPOUND": "COc1cc(-c2cc(-c3nc4cc(Cl)c(Cl)cc4[nH]3)[nH]n2)cc(OC)c1OC",
    "MEASURED_ON": "RPMI-8226 leukemia",
    "ASSIGNED_LABEL": "inactive"
  },
  {
    "COMPOUND": "C[C@@H]1[C@H]2[C@H](C=C3[C@@H]4CC[C@H]5Cc6nc7c(nc6C[C@]5(C)[C@H]4C[C@@H](O)[C@@]32C)C[C@@H]2CC[C@H]3C4=C[C@@H]5O[C@@]6(CC[C@](C)(CO)O6)[C@@H](C)[C@@]5(O)[C@@]4(C)[C@H](O)C[C@@H]3[C@@]2(C)C7)O[C@]12CCC(C)(C)O2",
    "MEASURED_ON": "RPMI-8226 leukemia",
    "ASSIGNED_LABEL": "active"
  },
  {
    "COMPOUND": "NC(=O)c1ccc2nc(-c3ccc(C4(N)CCC4)cc3)c(-c3ccccc3)n2n1",
    "MEASURED_ON": "RPMI-8226 leukemia",
    "ASSIGNED_LABEL": "inactive"
  },
  {
    "COMPOUND": "CSC1=Nc2c(c(C)c(-c3ccccc3)n2CCCCl)C2=NC(=O)CN12",
    "MEASURED_ON": "RPMI-8226 leukemia",
    "ASSIGNED_LABEL": "inactive"
  },
  {
    "COMPOUND": "C=CCC(N[C@@H](CO)c1ccccc1)c1ccccn1 (stereo partly drawn)",
    "MEASURED_ON": "RPMI-8226 leukemia",
    "ASSIGNED_LABEL": "inactive"
  },
  {
    "COMPOUND": "COc1cccc2c1nc1cccc(OC)c1[n+]2[O-]",
    "MEASURED_ON": "RPMI-8226 leukemia",
    "ASSIGNED_LABEL": "inactive"
  }
]

Q: # outcome recorded in this test, key = O=[N+]([O-])c1cccc(/C=C/c2ccccn2)c1
A: inactive
